Every entry's value here was drawn from paper PMC11480844.

B1: H2-Kb / Ed16-1 (parent complex)
chain 1: GEQVEQRPPHLSVREGDSAVITCTYTDPNSYYFFWYKQEPGASLQLLMKVFSSTEINEGQGFTVLLNKKDKRLSLNLTAAHPGDSAAYFCAVSGSNNRIFFGDGTQLVVKP
chain 2: EAAVTQSPRSKVAVTGGKVTLSCHQTNNHDYMYWYRQDTGHGLRLIHYSYVADSTEKGDIPDGYKASRPSQENFSLILELASLSQTAVYFCASRTGTDYTFGSGTRLLVI
chain 3: not shown
chain 4: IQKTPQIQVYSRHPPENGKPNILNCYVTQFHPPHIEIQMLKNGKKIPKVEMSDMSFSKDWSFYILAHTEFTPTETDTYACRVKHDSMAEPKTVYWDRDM
chain 5: SIINFEKL

- Variants of: B1
- assay: % of reporter cells activated (NFAT-GFP), raw; note: test concentration or dose not given here
Please assign a class to every record based on measured ratio to parent, with ranges b0 = under 0.4, b1 = from 0.4 up to 0.8, b2 = 0.8 and over

Answered cases to consult:
INSERT INTO assay_data (mutant_id, class) VALUES
  ('chain 5 I3L', 'b2'),
  ('chain 5 I3T', 'b1');

# input Which category fits this record: chain 5 N4L
# output b1

# input Category lookup for the variant chain 5 E6S
# output b0
